Assay: Plasma concentration in NMRI mouse at 10 mg/kg, ip after 30 mins by HPLC-MS/MS analysis
Type: ADME, organism-based
Parameters: dose 10 mg/kg, route intraperitoneal
Readout Name: concentration at 0.5 h (nM)

>>> df
                                   compound  observed_value
0  CCC1(CCCCN2CCN(c3ccc(Cl)cc3)CC2)C(=O)Nc2ccc(F)cc21 (stereo not drawn)             271
1  CCC1(CCCCN2CCN(c3ccc(Cl)cc3)CC2)C(=O)Nc2ccc(Cl)cc21 (stereo not drawn)               8
2  CCC1(CCCCN2CCN(c3cccc(Cl)c3)CC2)C(=O)Nc2ccccc21 (stereo not drawn)             272
3  CCC1(CCCCN2CCN(c3ccc(Cl)cc3)CC2)C(=O)Nc2ccccc21 (stereo not drawn)             399
4  CCC1(CCCCN2CCN(c3ccc(Cl)cc3)CC2)C(=O)Nc2cc(F)ccc21 (stereo not drawn)             177
5  O=C1Nc2ccccc2C1CCCCN1CCN(c2cccc(Cl)c2)CC1 (stereo not drawn)             744
6  CCC1(CCCCN2CCN(c3ccc(Cl)c(Cl)c3)CC2)C(=O)Nc2ccccc21 (stereo not drawn)             861
7  CCC1(CCCCN2CCN(c3ccc(F)cc3)CC2)C(=O)Nc2ccccc21 (stereo not drawn)             168

====

Ratio Ki values, listed per item
Assay: Selectivity ratio of Ki for 5-HT1A receptor in rat frontal cortex membrane to Ki for human 5-HT7 receptor
Assay type: cell membranes
Readout Name: Ratio Ki

                                    compound  readout_name  observed_value
 0  O=C1Nc2ccccc2C1CCCCN1CCN(c2ccc(Cl)cc2)CC1 (stereo not drawn)      Ratio Ki             257
 1  CCC1(CCCCN2CCN(c3ccc(F)cc3)CC2)C(=O)Nc2ccccc21 (stereo not drawn)      Ratio Ki           > 100
 2  CCC1(CCCCN2CCN(c3ccc(Cl)cc3)CC2)C(=O)Nc2cc(F)ccc21 (stereo not drawn)      Ratio Ki           > 100
 3  CCC1(CCCCN2CCN(c3ccc(Cl)cc3)CC2)C(=O)Nc2ccccc21 (stereo not drawn)      Ratio Ki           > 100
 4  CCC1(CCCCN2CCN(c3ccc(Cl)c(Cl)c3)CC2)C(=O)Nc2ccccc21 (stereo not drawn)      Ratio Ki           > 100
 5  CCC1(CCCCN2CCN(c3ccc(Cl)cc3)CC2)C(=O)Nc2cc(F)c(Cl)cc21 (stereo not drawn)      Ratio Ki           > 100
 6  O=C1Nc2ccccc2C1CCCCN1CCN(c2cccc(Cl)c2)CC1 (stereo not drawn)      Ratio Ki             135
 7  CCC1(CCCCN2CCN(c3cccc(Cl)c3)CC2)C(=O)Nc2ccccc21 (stereo not drawn)      Ratio Ki             115
 8  CCC1(CCCCN2CCN(c3ccc(Cl)cc3)CC2)C(=O)Nc2c(Cl)cc(Cl)cc21 (stereo not drawn)      Ratio Ki           > 100
 9  CCC1(CCCCN2CCN(c3cccc(Cl)c3)CC2)C(=O)Nc2cc(F)c(Cl)cc21 (stereo not drawn)      Ratio Ki           > 100
10  CCC1(CCCCN2CCN(c3ccc(Cl)cc3)CC2)C(=O)Nc2ccc(Cl)cc21 (stereo not drawn)      Ratio Ki           > 100
11  O=C1Nc2ccc(F)cc2C1CCCCN1CCN(c2ccc(Cl)cc2)CC1 (stereo not drawn)      Ratio Ki           > 100
12  CCC1(CCCCN2CCN(c3ccc(Cl)cc3)CC2)C(=O)Nc2ccc(F)cc21 (stereo not drawn)      Ratio Ki           > 100
